Experiment: AUC (0 to t) in Sprague-Dawley rat plasma at 2 mg/kg, IG by LC-MS/MS analysis
Format: ADME, organism-based
Design: dose 2 mg/kg
Settings: Sprague-Dawley, plasma, po
value_type: AUC(0-t) (ng·h/mL)

These solved cases illustrate the format of a correct answer.
| chem_smiles | AUC(0-t), ng·h/mL |
| --- | --- |
| Cc1ccc(NC(=O)c2cnnc(C(F)(F)F)c2)cc1-c1ccc2c(c1)OC1(CCOCC1)CC(=O)N2 | 176 |
| Cc1ccc(NC(=O)c2ccnc(C(F)(F)F)c2)cc1-c1ccc2c(c1)OC1(CCOCC1)CN(CCO)C2=O | 29 |
| Cc1ccc(-c2nnc(-c3ccnc(C(F)(F)F)c3)[nH]2)cc1-c1ccc2c(c1)OC1(CCOCC1)CC(=O)N2 | 38.6 |

I: Cc1ccc(NC(=O)c2ccnc(OC(F)F)c2)cc1-c1ccc2c(c1)OC1(CCOCC1)CC(=O)N2
II: Cc1ccc(NC(=O)c2cc(C(F)(F)F)cnn2)cc1-c1ccc2c(c1)OC1(CCOCC1)CC(=O)N2
Which record would sort first by descending AUC(0-t), I or II ? Pick one and reply with its label.
II
(II: 4700 ng·h/mL, I: 455 ng·h/mL)
